Attribution: paper PMC8713164

Molecular target: hERG (Homo sapiens)
Construct: Eurofins (Cerep), contract assay
Sequence (Q12809 whole entry): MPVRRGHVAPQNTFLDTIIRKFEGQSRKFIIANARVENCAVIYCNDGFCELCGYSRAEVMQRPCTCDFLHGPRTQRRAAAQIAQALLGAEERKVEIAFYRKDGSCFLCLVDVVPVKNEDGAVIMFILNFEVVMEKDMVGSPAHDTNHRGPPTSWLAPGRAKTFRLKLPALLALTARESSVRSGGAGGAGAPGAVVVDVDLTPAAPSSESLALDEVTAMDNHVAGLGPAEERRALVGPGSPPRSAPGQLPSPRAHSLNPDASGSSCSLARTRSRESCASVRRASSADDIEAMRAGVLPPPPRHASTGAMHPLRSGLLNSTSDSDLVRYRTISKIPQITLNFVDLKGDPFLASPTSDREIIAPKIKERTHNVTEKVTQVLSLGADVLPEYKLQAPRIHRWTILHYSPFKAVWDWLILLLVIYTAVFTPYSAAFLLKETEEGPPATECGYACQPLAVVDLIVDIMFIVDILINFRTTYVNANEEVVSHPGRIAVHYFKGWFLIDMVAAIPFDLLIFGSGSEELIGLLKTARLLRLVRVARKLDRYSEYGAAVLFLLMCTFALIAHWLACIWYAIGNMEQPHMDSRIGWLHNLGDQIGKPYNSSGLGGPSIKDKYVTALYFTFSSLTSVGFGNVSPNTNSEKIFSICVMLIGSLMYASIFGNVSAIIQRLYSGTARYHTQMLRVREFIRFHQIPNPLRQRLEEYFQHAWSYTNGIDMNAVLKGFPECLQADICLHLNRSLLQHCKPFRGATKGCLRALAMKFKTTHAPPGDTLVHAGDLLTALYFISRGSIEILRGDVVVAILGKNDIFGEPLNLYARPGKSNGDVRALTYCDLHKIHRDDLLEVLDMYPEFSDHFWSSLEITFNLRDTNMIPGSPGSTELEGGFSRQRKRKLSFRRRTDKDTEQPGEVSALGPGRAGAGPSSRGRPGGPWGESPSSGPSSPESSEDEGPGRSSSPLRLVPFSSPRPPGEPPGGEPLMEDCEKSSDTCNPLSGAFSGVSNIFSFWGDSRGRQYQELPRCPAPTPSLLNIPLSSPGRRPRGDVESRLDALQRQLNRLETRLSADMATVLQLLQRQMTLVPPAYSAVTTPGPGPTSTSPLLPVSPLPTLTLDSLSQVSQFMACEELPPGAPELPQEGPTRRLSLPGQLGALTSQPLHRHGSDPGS
Assay: hERG inhibition
Protocol: A safety panel (Cerep) of 44 selected targets (n = 2) including hERG Inhibition using 10 μM 24 was performed by Eurofins. Ames and CYP3A4 inhibition assays were performed by Cyprotex, and the PXR assay (CYP induction) was performed at Admescope. The PARP assays are described below.
pIC50: −log10 of the molar value.
property_measured: pIC50

Challenge: Please give the measured pIC50 for this molecule: CCOc1ccc(-c2nnc([C@H]3C[C@H](NC(=O)c4cccc5nccnc45)C3)n2-c2ccccc2F)nc1 [Compound 24]
Response given: < 4.60

###

molecular target: PARP4 (Homo sapiens, UniProt Q9UKK3)
Sequence (Q9UKK3 whole entry): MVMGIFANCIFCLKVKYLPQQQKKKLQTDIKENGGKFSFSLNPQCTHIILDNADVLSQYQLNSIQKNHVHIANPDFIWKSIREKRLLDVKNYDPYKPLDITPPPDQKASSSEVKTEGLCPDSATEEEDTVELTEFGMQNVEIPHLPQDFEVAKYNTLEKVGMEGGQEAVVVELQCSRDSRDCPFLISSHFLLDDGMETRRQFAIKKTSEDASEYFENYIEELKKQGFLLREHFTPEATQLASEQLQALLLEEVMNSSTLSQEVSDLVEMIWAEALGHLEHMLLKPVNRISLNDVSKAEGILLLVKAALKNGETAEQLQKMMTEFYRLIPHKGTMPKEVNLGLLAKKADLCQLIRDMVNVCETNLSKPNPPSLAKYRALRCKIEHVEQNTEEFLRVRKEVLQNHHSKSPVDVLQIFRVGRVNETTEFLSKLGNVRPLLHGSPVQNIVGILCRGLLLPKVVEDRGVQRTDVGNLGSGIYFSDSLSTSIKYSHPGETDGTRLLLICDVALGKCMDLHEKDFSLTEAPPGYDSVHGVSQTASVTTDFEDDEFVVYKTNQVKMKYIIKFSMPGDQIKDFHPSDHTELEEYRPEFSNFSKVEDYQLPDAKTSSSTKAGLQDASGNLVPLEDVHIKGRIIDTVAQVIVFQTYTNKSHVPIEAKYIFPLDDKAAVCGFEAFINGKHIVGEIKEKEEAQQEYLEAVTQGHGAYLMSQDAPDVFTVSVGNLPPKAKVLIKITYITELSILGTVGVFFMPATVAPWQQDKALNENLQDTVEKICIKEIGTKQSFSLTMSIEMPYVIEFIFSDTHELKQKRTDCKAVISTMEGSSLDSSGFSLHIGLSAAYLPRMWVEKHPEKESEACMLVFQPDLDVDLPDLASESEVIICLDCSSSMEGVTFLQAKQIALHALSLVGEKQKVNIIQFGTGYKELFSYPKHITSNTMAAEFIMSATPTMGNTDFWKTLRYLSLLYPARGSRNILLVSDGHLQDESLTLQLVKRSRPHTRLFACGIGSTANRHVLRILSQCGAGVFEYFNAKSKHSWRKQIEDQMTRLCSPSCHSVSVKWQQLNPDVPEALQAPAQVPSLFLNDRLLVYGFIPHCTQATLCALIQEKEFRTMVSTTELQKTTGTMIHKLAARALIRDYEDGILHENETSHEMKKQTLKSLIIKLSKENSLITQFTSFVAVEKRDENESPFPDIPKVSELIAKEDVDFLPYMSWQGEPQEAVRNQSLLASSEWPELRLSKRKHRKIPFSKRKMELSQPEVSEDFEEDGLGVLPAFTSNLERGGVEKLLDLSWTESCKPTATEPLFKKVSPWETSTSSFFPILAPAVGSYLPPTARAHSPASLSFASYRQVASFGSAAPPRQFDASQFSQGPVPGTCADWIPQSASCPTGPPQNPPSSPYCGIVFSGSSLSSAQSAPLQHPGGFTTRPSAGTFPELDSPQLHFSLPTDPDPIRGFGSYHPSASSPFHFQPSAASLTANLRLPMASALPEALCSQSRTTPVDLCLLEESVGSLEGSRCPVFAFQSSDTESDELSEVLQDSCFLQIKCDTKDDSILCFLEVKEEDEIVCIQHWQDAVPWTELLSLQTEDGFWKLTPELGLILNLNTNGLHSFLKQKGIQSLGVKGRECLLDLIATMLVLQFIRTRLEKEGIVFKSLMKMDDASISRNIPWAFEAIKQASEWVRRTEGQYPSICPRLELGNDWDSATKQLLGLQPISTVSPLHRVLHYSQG
property_measured: IC50

Challenge: Fill in: IC50 of CCOc1ccc(-c2nnc([C@H]3C[C@H](NC(=O)c4cccc5nccnc45)C3)n2-c2ccccc2F)nc1 is ___
Response given: > 100 µM

###

Molecular target: PARP10 (Homo sapiens)
Sequence (Q53GL7 1-1025): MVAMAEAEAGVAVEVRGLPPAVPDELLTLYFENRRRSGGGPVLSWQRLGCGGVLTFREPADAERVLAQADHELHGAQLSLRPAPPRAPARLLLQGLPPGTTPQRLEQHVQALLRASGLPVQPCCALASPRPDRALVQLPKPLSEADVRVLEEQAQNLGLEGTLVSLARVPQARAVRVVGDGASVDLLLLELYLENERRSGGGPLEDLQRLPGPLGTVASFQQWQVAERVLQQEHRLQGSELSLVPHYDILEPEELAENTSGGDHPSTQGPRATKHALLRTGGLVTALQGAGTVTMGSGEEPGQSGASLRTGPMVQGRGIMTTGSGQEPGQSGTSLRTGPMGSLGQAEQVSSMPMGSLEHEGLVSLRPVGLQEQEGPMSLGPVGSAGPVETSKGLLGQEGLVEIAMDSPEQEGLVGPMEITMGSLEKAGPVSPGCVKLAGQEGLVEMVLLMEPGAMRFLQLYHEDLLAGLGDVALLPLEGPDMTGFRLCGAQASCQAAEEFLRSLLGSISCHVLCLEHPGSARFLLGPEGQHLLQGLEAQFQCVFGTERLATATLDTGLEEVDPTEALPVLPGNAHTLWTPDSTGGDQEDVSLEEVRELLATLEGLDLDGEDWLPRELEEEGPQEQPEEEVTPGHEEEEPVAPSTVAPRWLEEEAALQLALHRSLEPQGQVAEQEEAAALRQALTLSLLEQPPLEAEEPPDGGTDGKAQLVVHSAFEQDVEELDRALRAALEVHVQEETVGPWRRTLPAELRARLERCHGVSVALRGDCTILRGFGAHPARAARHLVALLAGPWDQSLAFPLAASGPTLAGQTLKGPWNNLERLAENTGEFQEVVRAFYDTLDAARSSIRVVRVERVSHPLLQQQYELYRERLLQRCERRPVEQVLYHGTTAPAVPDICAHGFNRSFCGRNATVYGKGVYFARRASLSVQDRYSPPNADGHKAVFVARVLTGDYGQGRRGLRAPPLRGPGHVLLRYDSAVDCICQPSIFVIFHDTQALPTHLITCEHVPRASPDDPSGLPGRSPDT
property_measured: IC50

Challenge: Which IC50 reading was recorded for the compound CCOc1ccc(-c2nnc([C@H]3C[C@H](NC(=O)c4cccc5nccnc45)C3)n2-c2ccccc2F)nc1 [Compound 24] ?
Response given: > 10 µM

###

Target: PARP12 (Homo sapiens, UniProt Q9H0J9)
Sequence (Q9H0J9 1-701): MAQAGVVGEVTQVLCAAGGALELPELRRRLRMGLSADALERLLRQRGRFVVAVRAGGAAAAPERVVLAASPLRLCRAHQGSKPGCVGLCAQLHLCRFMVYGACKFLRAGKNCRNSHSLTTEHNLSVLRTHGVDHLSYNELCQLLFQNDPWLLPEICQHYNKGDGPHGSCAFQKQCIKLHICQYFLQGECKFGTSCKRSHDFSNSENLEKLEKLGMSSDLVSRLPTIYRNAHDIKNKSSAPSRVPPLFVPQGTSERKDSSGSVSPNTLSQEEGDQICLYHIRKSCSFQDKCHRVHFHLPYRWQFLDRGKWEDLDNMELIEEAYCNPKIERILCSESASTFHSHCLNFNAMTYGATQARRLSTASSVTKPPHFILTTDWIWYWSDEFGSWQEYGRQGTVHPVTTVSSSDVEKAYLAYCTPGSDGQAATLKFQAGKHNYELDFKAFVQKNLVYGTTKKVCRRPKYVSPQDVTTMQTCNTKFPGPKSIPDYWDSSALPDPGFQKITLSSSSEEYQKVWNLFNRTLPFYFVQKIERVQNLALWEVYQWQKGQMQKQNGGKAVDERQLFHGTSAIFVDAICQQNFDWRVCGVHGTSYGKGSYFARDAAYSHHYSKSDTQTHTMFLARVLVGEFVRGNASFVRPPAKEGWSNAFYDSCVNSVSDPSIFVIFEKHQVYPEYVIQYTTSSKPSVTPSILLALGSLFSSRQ
pIC50: −log10 of the molar value.
property_measured: pIC50

Challenge: Bench note: what pIC50 did CCOc1ccc(-c2nnc([C@H]3C[C@H](NC(=O)c4cccc5nccnc45)C3)n2-c2ccccc2F)nc1 [Compound 24] show?
Response given: < 5.00

###

Biological target: PARP15 (Homo sapiens, UniProt Q460N3)
Sequence (Q460N3 1-678): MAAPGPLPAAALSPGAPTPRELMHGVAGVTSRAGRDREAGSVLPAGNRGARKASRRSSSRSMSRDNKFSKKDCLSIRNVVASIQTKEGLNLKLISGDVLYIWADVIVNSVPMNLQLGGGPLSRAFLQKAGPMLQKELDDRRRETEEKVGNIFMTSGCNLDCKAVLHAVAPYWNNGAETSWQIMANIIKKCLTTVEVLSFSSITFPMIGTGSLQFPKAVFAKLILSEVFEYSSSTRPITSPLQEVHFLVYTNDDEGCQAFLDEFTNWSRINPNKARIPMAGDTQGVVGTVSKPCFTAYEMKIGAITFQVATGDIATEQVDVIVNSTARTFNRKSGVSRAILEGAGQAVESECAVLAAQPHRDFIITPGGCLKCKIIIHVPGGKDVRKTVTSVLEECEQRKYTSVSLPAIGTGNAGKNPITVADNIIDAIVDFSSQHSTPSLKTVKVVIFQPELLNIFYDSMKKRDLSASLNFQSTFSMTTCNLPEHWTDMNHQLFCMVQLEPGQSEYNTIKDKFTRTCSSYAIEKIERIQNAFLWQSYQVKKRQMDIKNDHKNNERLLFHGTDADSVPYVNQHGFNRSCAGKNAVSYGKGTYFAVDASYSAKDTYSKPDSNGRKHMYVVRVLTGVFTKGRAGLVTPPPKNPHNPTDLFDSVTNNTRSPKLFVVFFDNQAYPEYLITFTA
pIC50: −log10 of the molar value.
property_measured: pIC50

Challenge: # value lookup — system PARP15 (Homo sapiens, UniProt Q460N3), readout pIC50, item CCOc1ccc(-c2nnc([C@H]3C[C@H](NC(=O)c4cccc5nccnc45)C3)n2-c2ccccc2F)nc1
Response given: < 5.00

###

// reported pIC50 for each item listed
target: TNKS2 (Homo sapiens, UniProt Q9H2K2); construct: TNKS2 (residues 873–1162); made in house; test: TNKS2 biochemical assay (unreacted NAD+ fluorescence); conditions: TNKS2 5 nM, 500 nM NAD+, 20 h; quadruplicates; 95% confidence intervals in parentheses; 24: averages of multiple independent measurements; read-out: IC50 TNKS2
Sequence (Q9H2K2 873-1162): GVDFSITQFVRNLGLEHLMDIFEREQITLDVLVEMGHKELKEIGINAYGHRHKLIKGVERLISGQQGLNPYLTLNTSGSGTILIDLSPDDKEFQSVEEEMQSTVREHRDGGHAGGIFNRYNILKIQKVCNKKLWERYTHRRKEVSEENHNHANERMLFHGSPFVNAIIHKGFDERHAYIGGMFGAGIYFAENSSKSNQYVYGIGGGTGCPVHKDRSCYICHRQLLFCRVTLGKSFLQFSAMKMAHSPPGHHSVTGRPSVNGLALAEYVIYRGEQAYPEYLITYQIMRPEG
In simple prose, pIC50 is minus the logarithm base ten of a concentration in moles per litre.

Sample records with pIC50:
CCOc1ccc(-c2nnc(C34CC(NC(=O)c5ccnc6cccnc56)(C3)C4)n2-c2ccccn2)nc1 [Compound 19]; 7.89
CCOc1ccc(-c2nnc([C@H]3C[C@H](NC(=O)c4cccc5nc(C)cnc45)C3)n2-c2ccccc2F)nc1 [Compound 27]; 8.96
CCOc1ccc(-c2nnc([C@H]3C[C@H](NC(=O)c4ccnc5cc(F)cnc45)C3)n2-c2cccnc2)nc1 [Compound 17b]; 8.24

Challenge: Quick check: pIC50 of Cc1cccc(-c2nnc([C@H]3C[C@H](NC(=O)c4cc(F)cc5nccnc45)C3)n2-c2ccccc2F)n1 [Compound 31b] ?
Response given: 8.80

###

test: kinetic solubility; format: physicochemical; conditions: PBS pH = 7
property_measured: solubility kinetic at 1 h (µM)
Record the value in µM, omitting the unit from your answer.

Answered examples (2):
CCOc1ccc(-c2nnc([C@H]3C[C@H](NC(=O)c4ccnc5cccnc45)C3)n2-c2ccc(C)s2)nc1 [Compound 22a]; 50
CCOc1ccc(-c2nnc([C@H]3C[C@H](NC(=O)c4cccc5nccnc45)C3)n2-c2ccccc2F)nc1; 31

Consider the additional compound presented here.
Challenge: Reported solubility kinetic at 1 h for Cc1cccc(-c2nnc([C@H]3C[C@H](NC(=O)c4cc(F)cc5nccnc45)C3)n2-c2ccccc2F)n1 [Compound 31b] : what is it?
Response given: 13

###

assay: microsomal stability, dog; format: in vitro ADME; details: microsomes
property_measured: microsomal CLint at 1 h (µL/min/mg)
# number only, unit µL/min/mg dropped from output

Challenge: Using the record for CCOc1ccc(-c2nnc([C@H]3C[C@H](NC(=O)c4cccc5nccnc45)C3)n2-c2ccccc2F)nc1 , report its microsomal CLint at 1 h.
Response given: 3.8
